Values compiled from patent US20110059504A1.

# Test System: T1, human myostatin (human, UniProt O14793 267-375, biotinylated in selections and radioactive assays (site not stated))
# T1 construct: Phage ELISA used both unbiotinylated and biotinylated myostatin; also called biotinylated human myostatin; myostatin-biotin
# T1 sequence (looked up): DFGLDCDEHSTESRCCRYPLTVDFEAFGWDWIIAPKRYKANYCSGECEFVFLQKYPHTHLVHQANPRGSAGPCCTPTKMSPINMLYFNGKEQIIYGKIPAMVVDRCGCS
# Measurement Protocol: radioactive equilibrium binding assay
# Description: Affinities of selected F13β2 binders to biotinylated myostatin were determined in radioactive equilibrium binding assay (FIGS. 11A and 11B; Table 3). ³⁵S-labeled binder proteins from selection pools and single clones were produced in vitro in a rabbit reticulocyte lysate translation kit (Ambion) and purified on M2-agarose (Sigma). […] The beads were washed five times with 100 μl buffer B, and the amount of ³⁵S-methionine remained on the beads was measured by scintillation counting. […]
Measured Parameter: Kd

>>> data_value("39885-C1 (designed binder, group M2-A) MTIPEIIIKVRGTQVVGSDMTVIVEFTNPLKETLRNVWVHLDGPGVTRPMKKMFPAIPMNHKVQWEEVVRPWVSGHRKLIASMLNHFYKHVYGELDVQIQRRDYKDDDDK")
"140 nM"
>>> data_value("39908-A1 (designed binder, group M3-A50; ΔS82, M83R; also called M02 (clone ID)) MTIPEIIIKVRGTQVVGSDMTVIVEFSNPFKETLRNVWVHLDGPGVTRPMKKMFCEIRPNSIVQWEEVVRPWVSGHRKLIARCSLSPWHVYGELDVQIQRRDYKDDDDK")
"12 nM"
>>> data_value("45927-E1 (designed binder, group M2-Aext) MTIPEIIIKVRGTQVVGSDMTVIVEFTNPLKETLRNVWVHLDGPGVTRPMKKMFTGILQWSTVQWEEVVRPWVSGHRKLIASMSPHAWWQHHGNFSVYGELDVQIQRRDYKDDDDK")
"6.04 nM"
>>> data_value("39633-D5 (designed binder, group M4-A50; also called 39633-D5/yes) MTIPEIIIKVRGTQVVGSDMTVIVEFTNPFKETLRSVWVHLDGPGVTRPMKKMFREIPPKTTVQWEEVVRPWVSGHRKLIASMCEPSLDHVYGELDVQIQRRDYKDDDDK")
"8.69 nM"
